Test system: Alternaria solani
Assay: Alternaria test (tomato) / protective
Type: in vivo
Conditions: 500 ppm active compound, protective spray, evaluated 7 days after inoculation
Experimental: Alternaria Test (Tomato)/Protective Solvent: 49 parts by weight of N,N-dimethylformamide Emulsifier: 1 part by weight of alkylaryl polyglycol ether To produce a suitable preparation of active compound, 1 part by weight of active compound is mixed with the stated amounts of solvent and emulsifier, and the concentrate is diluted with water to the desired concentration. […]
Note to self: use MET only for efficacy readings below 90%; a reading exactly at 90% still gets NOT MET.

Consider the following illustrative entries.
compound: N#CCCn1cc(-c2ccncc2)c(-c2ccc(F)s2)n1 [Example 340]
class-assignment: NOT MET
--
compound: Fc1ccc(-c2nn(CC(F)(F)F)cc2-c2ccncc2)s1 [Example 378]
class-assignment: NOT MET
--
compound: CC(C)n1cc(-c2ccncc2)c(-c2cccs2)n1 [Example 300]
class-assignment: NOT MET
--
compound: CC(=O)Nc1cc(-c2cn(CC(C)C)nc2-c2ccc(Cl)s2)cc[n+]1[O-] [Example 80]
class-assignment: NOT MET

Asked: Item COCC(=O)Nc1cc(-c2cn(CC(C)C)nc2-c2ccc(Cl)s2)ccn1 [Example 360] : efficacy beneath 90%, strictly?
Given back: MET

Asked: Item CCC(C)n1cc(-c2ccnc(NC(=O)COC)c2)c(-c2ccc(Cl)s2)n1 (stereo not shown) [Example 223] : efficacy beneath 90%, strictly?
Given back: NOT MET

Asked: Item C=CC(C)n1cc(-c2ccncc2)c(-c2cc3ccsc3s2)n1 (stereo not shown) [Example 368] : efficacy beneath 90%, strictly?
Given back: MET

---

# % Inhibition of DON/AcDON at 50 μM per entry
test system: Fusarium graminearum; assay type: cell-based; conditions: 50 μM; 7 days at 28° C.
# value in %; strip the unit string

Asked: Output measured % Inhibition of DON/AcDON at 50 μM for this item: CC(=O)Nc1cc(-c2cnn(/C=C/F)c2-c2ccc(Cl)s2)ccn1 [Example 292]
Given back: 100

Asked: Output measured % Inhibition of DON/AcDON at 50 μM for this item: CCC(C)n1nc(-c2ccc(Cl)s2)c(-c2ccncc2)c1Br (stereo not drawn) [Example 394]
Given back: 100

Asked: Output measured % Inhibition of DON/AcDON at 50 μM for this item: CCNC(=O)Nc1cc(-c2cn(CC(C)C)nc2-c2ccc(Cl)s2)ccn1 [Example 321]
Given back: 92

Asked: Output measured % Inhibition of DON/AcDON at 50 μM for this item: Cc1cn(-c2cc(-c3cn(CC(C)C)nc3-c3ccc(Cl)s3)ccn2)cn1 [Example 399]
Given back: 90

Asked: Output measured % Inhibition of DON/AcDON at 50 μM for this item: CCOCCn1cc(-c2ccncc2)c(-c2ccc(Cl)s2)n1 [Example 364]
Given back: 99

Asked: Output measured % Inhibition of DON/AcDON at 50 μM for this item: Fc1ccc(-c2n[nH]cc2-c2ccncc2)s1 [Example 105]
Given back: 88

Asked: Output measured % Inhibition of DON/AcDON at 50 μM for this item: C=CCNc1nccc(-c2cn(C(C)CC)nc2-c2ccc(Cl)s2)n1 (stereo not drawn) [Example 196]
Given back: 99

Asked: Output measured % Inhibition of DON/AcDON at 50 μM for this item: Nc1cc(-c2cn(/C=C/F)nc2-c2ccc(Cl)s2)ccn1 [Example 301]
Given back: 99

Asked: Output measured % Inhibition of DON/AcDON at 50 μM for this item: CCC(=O)Nc1cc(-c2cn(C(C)C)nc2-c2ccc(Cl)s2)ccn1 [Example 246]
Given back: 99

---

test: logP by HPLC on reversed phase columns, method [a] (pH 2.3); format: physicochemical; settings: method [a]: pH 2.3, 0.1% phosphoric acid and acetonitrile as eluent; main isomer
value-kind: log p

Asked: Output measured log p for this item: c1cc(-c2c[nH]nc2-c2cc3ccsc3s2)ccn1 [Example 409]
Given back: 1.13^[a]

Asked: Output measured log p for this item: CC(C)Cn1cc(-c2cc(O)ncn2)c(-c2ccc(Cl)s2)n1 [Example 422]
Given back: 2.84^[a]

Asked: Output measured log p for this item: CC(C)n1cc(-c2ccncc2)c(-c2ccc(C(F)(F)F)s2)n1 [Example 401]
Given back: 2.2^[a]

Asked: Output measured log p for this item: CC(C)Cn1nc(-c2ccc(Cl)s2)c(-c2ccncc2)c1C1CC1 [Example 414]
Given back: 2.7^[a]

Asked: Output measured log p for this item: CC(C)Cn1nc(C2CC2)c(-c2ccncc2)c1-c1ccc(Cl)s1 [Example 413]
Given back: 2.61^[a]

Asked: Output measured log p for this item: CCC(C)n1nc(C2CC2)c(-c2ccncc2)c1-c1ccc(Cl)s1 (stereo not shown) [Example 415]
Given back: 2.73^[a]

Asked: Output measured log p for this item: CC#Cc1[nH]nc(-c2ccc(Cl)s2)c1-c1ccncc1 [Example 419]
Given back: 1.44^[a]

Asked: Output measured log p for this item: CC(C)n1nc(C2CC2)c(-c2ccncc2)c1-c1ccc(Cl)s1 [Example 417]
Given back: 2.44^[a]

Asked: Output measured log p for this item: CC(C)Cn1cc(-c2ccnc(O)n2)c(-c2ccc(Cl)s2)n1 [Example 398]
Given back: 2.62^[a]

Asked: Output measured log p for this item: CC#Cc1c(-c2ccncc2)c(-c2ccc(Cl)s2)nn1C(C)C [Example 412]
Given back: 2.78^[a]

Asked: Output measured log p for this item: CC(C)Cn1cc(-c2ccnc3ccccc23)c(-c2ccc(Cl)s2)n1 [Example 421]
Given back: 3.69^[a]

Asked: Output measured log p for this item: Brc1ccc(-c2n[nH]cc2-c2ccncc2)s1 [Example 408]
Given back: 0.94^[a]

Asked: Output measured log p for this item: CC(C)Cn1cc(-c2ccnc(NC(C)C)n2)c(-c2ccc(Cl)s2)n1 [Example 411]
Given back: 4.34^[a]

Asked: Output measured log p for this item: CCC(=O)Nc1cc(-c2cn(CC(C)C)nc2-c2ccc(Cl)s2)ccn1 [Example 396]
Given back: 3.33^[a]

Asked: Output measured log p for this item: CC#Cc1c(-c2ccncc2)c(-c2ccc(Cl)s2)nn1Cc1ccc(OC)cc1 [Example 420]
Given back: 3.02^[a]

Asked: Output measured log p for this item: FC(F)(F)c1ccc(-c2c(-c3ccncc3)cnn2C2CCCCO2)s1 (stereo not shown) [Example 403]
Given back: 1.94^[a]

---

# log p per entry
conditions: pH 2.7
Marks after values point to notes of the source that are not given here.

A selection of reference data follows.
molecule: CC(C)Nc1nccc(-c2cn(CCCl)nc2-c2ccc(Cl)s2)n1 [Example 119]
value-kind: log p
endpoint-value: 2.63^[b]
--
molecule: CC(C)OC(=O)Nc1cc(-c2cn(C)nc2-c2ccc(Cl)s2)ccn1 [Example 274]
value-kind: log p
endpoint-value: 2.9^[b]
--
molecule: CCC(CC)n1cc(-c2ccnc(NC(C)C)n2)c(-c2ccc(Cl)s2)n1 [Example 116]
value-kind: log p
endpoint-value: 3.57^[b]
--
molecule: Clc1ccc(-c2nn(-c3ccccc3)cc2-c2ccncc2)s1 [Example 22]
value-kind: log p
endpoint-value: 2.63^[b]
--
molecule: CC(C)CC(=O)Nc1cc(-c2cn(C)nc2-c2ccc(Cl)s2)ccn1 [Example 270]
value-kind: log p
endpoint-value: 2.75^[b]

Asked: Output measured log p for this item: Clc1ccsc1-c1nn(CCc2ccccc2)cc1-c1ccncc1 [Example 128]
Given back: 1.88^[b]

Asked: Output measured log p for this item: Clc1ccc(-c2n[nH]c(Br)c2-c2ccncc2)s1 [Example 44]
Given back: 1.4^[b]

Asked: Output measured log p for this item: CCC(=O)Nc1cc(-c2cn(C(C)C)nc2-c2cccs2)ccn1 [Example 175]
Given back: 2.01^[b]

Asked: Output measured log p for this item: Fc1ccc(-c2nn(CC=C(Cl)Cl)cc2-c2ccncc2)s1 [Example 346]
Given back: 1.43^[b]

---

test: physchem; settings: pH 2.7
# log p per entry
Give the figure only, with no unit attached.

A selection of reference data follows.
compound: CCn1nccc1-c1cccs1 [1-Ethyl-5-(2-thienyl)-1H-pyrazole]
log p: 2.18
--
compound: CC(C)n1ncc(-c2ccncc2)c1-c1ccc(F)s1
log p: 1.51
--
compound: Cc1csc(-c2ccnn2C)c1
log p: 2.26
--
compound: CSc1nccc(-c2cn(C(C)C)nc2-c2ccc(Cl)s2)n1
log p: 4.44
--
compound: CC(C)n1ccc(-c2cccs2)n1 [1-Isopropyl-3-(2-thienyl)-1H-pyrazole]
log p: 2.66

Asked: Output measured log p for this item: `CC(C)n1ccc(-c2cc(Br)c(Br)s2)n1`
Given back: 4.64

---

test system: Fusarium graminearum; assay type: cell-based; conditions: 50 μM; 7 days at 28° C.
value-kind: % Inhibition of DON/AcDON at 50 μM (%)
# value in %; strip the unit string

A selection of reference data follows.
compound: FCCn1cc(-c2ccncc2)c(-c2ccc(F)s2)n1
target-under-test: Fusarium graminearum
unit-abbrev: %
% Inhibition of DON/AcDON at 50 μM: 99
--
compound: O=C1OCCC1n1cc(-c2ccncc2)c(-c2ccc(Cl)s2)n1 (stereo not shown)
target-under-test: Fusarium graminearum
unit-abbrev: %
% Inhibition of DON/AcDON at 50 μM: 90
--
compound: FCCn1cc(-c2ccncc2)c(-c2ccc(Br)s2)n1
target-under-test: Fusarium graminearum
unit-abbrev: %
% Inhibition of DON/AcDON at 50 μM: 99
--
compound: COCC(=O)Nc1cc(-c2cn(C)nc2-c2ccc(Cl)s2)ccn1
target-under-test: Fusarium graminearum
unit-abbrev: %
% Inhibition of DON/AcDON at 50 μM: 98
--
compound: Brc1ccc(-c2nn(C3CCCC3)cc2-c2ccncc2)s1
target-under-test: Fusarium graminearum
unit-abbrev: %
% Inhibition of DON/AcDON at 50 μM: 97
--
compound: CCC(C)n1nc(-c2ccc(Cl)s2)c(-c2ccncc2)c1SC (stereo not shown)
target-under-test: Fusarium graminearum
unit-abbrev: %
% Inhibition of DON/AcDON at 50 μM: 100
--
compound: FC(F)(F)Cn1cc(-c2ccncc2)c(-c2cc3ccsc3s2)n1
target-under-test: Fusarium graminearum
unit-abbrev: %
% Inhibition of DON/AcDON at 50 μM: 94
--
compound: CCC(C)n1cc(-c2ccnc(NC(=O)COC)c2)c(-c2ccc(Cl)s2)n1 (stereo not shown)
target-under-test: Fusarium graminearum
unit-abbrev: %
% Inhibition of DON/AcDON at 50 μM: 99

Please turn your attention to the following entry.
Asked: Output measured % Inhibition of DON/AcDON at 50 μM for this item: `CC(C)CC(=O)Nc1cc(-c2cn(C(C)C)nc2-c2ccc(Cl)s2)ccn1`
Given back: 94

# credit: patent US8685974B2
